System: SH-4;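 note: growth inhibition of SH-4 cells, read out with a cell viability assay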
assay name: cells
Format: functional, cell-based, Homo sapiens
particulars: Homo sapiens, SH-4
Description: SANGER: Inhibition of human SH-4 cell growth in a cell viability assay.
Structures can show the parent of a compound that is named as a salt.
Form field: IC50 (one value per entry).
metric name: IC50

CC[C@H](CO)Nc1nc(NCc2ccccc2)c2ncn(C(C)C)c2n1
> 16 µM
COC1=CC(c2cc3ccccc3[nH]2)=N/C1=C\c1[nH]c(C)cc1C [OBATOCLAX MESYLATE]
< 0.0625 µM
OCCCNc1cc(-c2ccnc(Nc3cccc(Cl)c3)n2)ccn1
> 0.256 µM
CC1(C)CNc2cc(NC(=O)c3cccnc3NCc3ccncc3)ccc21
> 2 µM

* * *

Tested on: NCI-H23;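 note: cell viability assay measuring growth inhibition of NCI-H23 cells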
assay name: cells
Type: functional, cell-based, Homo sapiens
particulars: Homo sapiens, NCI-H23
Description: SANGER: Inhibition of human NCI-H23 cell growth in a cell viability assay.
Where a name gives a salt, the structure may show the parent alone.
Form field: IC50 (one value per entry).
metric name: IC50

N[C@@H](CSC(c1ccccc1)(c1ccccc1)c1ccccc1)C(=O)O
> 5.12 µM
COc1cc2ncn(-c3cc(OCc4ccccc4S(C)(=O)=O)c(C#N)s3)c2cc1OC [GSK-319347A]
> 5 µM
COC1=CC(c2cc3ccccc3[nH]2)=N/C1=C\c1[nH]c(C)cc1C [OBATOCLAX MESYLATE]
10.6 µM

* * *

System: A253 cell line
assay name: cells
Format: functional, cell-based, Homo sapiens
particulars: Homo sapiens, A253
Description: SANGER: Inhibition of human A253 cell growth in a cell viability assay.
Form field: IC50 (one value per entry).
metric name: IC50

CCN(CC)CCCCNc1ncc2cc(-c3cc(OC)cc(OC)c3)c(NC(=O)NC(C)(C)C)nc2n1 [PD-173074]
> 2 µM
COc1cc(-c2nn([C@H]3CC[C@H](N4CCN(C(C)=O)CC4)CC3)c3ncnc(N)c23)ccc1NC(=O)c1cc2ccccc2n1C
> 5.12 µM
CC[C@H](CO)Nc1nc(NCc2ccccc2)c2ncn(C(C)C)c2n1 [SELICICLIB]
> 16 µM

* * *

Form field: IC50 (one value per entry).
Tested on: Panc1005;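 note: growth inhibition of human PANC-10-05 cells, measured by a cell viability assay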
assay name: cells
Type: functional, cell-based, Homo sapiens
particulars: Homo sapiens, Panc1005
Description: SANGER: Inhibition of human PANC-10-05 cell growth in a cell viability assay.
metric name: IC50

Cn1cnc2c(F)c(Nc3ccc(Br)cc3Cl)c(C(=O)NOCCO)cc21 [SELUMETINIB]
> 4 µM
Oc1ccc2ccccc2c1SSc1c(O)ccc2ccccc12
> 32 µM
C=C(c1ccc(C(=O)O)cc1)c1cc2c(cc1C)C(C)(C)CCC2(C)C [BEXAROTENE]
> 8 µM

* * *

Form field: IC50 (one value per entry).
Tested on: SNU-387
assay name: cells
Assay type: functional, cell-based, Homo sapiens
particulars: Homo sapiens, SNU-387
Description: SANGER: Inhibition of human SNU-387 cell growth in a cell viability assay.
metric name: IC50

Cc1cc([N+](=O)[O-])ccc1NS(=O)(=O)c1cc(Cl)ccc1Cl
7.66 µM
CCN(CC)CCCCNc1ncc2cc(-c3cc(OC)cc(OC)c3)c(NC(=O)NC(C)(C)C)nc2n1
> 2 µM
COc1cccc2c1C(=O)c1c(O)c3c(c(O)c1C2=O)C[C@@](O)(C(=O)CO)C[C@@H]3O[C@H]1C[C@H](N)[C@H](O)[C@H](C)O1
0.236 µM
Oc1ccc2ccccc2c1SSc1c(O)ccc2ccccc12
> 32 µM
CS(=O)(=O)c1ccc(C(=O)Nc2ccc(Cl)c(-c3ccccn3)c2)c(Cl)c1
> 10 µM
CN(C)C(=N)NC(=N)N
> 20000 µM
COc1cc2c(Nc3ccc(NC(=O)c4ccccc4)cc3)ncnc2cc1OCCCN1CCOCC1
> 4 µM
CC(C)CCN1c2nc(Nc3cc(F)c(O)c(F)c3)ncc2N(C)C(=O)C1C (stereo not given)
> 5 µM
N#Cc1c(O)c2c(-c3ccc(-c4ccccc4O)cc3)csc2[nH]c1=O
> 1.02 µM
Cc1cn(-c2cc(NC(=O)c3ccc(C)c(Nc4nccc(-c5cccnc5)n4)c3)cc(C(F)(F)F)c2)cn1
> 2 µM

* * *

System: SK-PN-DW;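 note: growth inhibition measured with a viability assay on these cells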
assay name: cells
Type: functional, cell-based, Homo sapiens
particulars: Homo sapiens, SK-PN-DW
Description: SANGER: Inhibition of human SK-PN-DW cell growth in a cell viability assay.
pIC50: −log10 of the molar value.
metric name: pIC50

COc1cc2ncn(-c3cc(OCc4ccccc4S(C)(=O)=O)c(C#N)s3)c2cc1OC [GSK-319347A]
< 5.30
CO[C@H]1C[C@@H]2CC[C@@H](C)[C@@](O)(O2)C(=O)C(=O)N2CCCC[C@H]2C(=O)O[C@H]([C@H](C)C[C@@H]2CC[C@@H](OC(=O)C(C)(CO)CO)[C@H](OC)C2)CC(=O)[C@H](C)/C=C(\C)[C@@H](O)[C@@H](OC)C(=O)[C@H](C)C[C@H](C)/C=C/C=C/C=C/1C [TEMSIROLIMUS]
< 6.70
Nc1ccn([C@@H]2O[C@H](CO)[C@@H](O)C2(F)F)c(=O)n1 [GEMCITABINE]
> 8.40

* * *

Tested on: SW756
assay name: cells
Type: functional, cell-based, Homo sapiens
particulars: Homo sapiens, SW756
Description: SANGER: Inhibition of human SW756 cell growth in a cell viability assay.
Form field: IC50 (one value per entry).
metric name: IC50

N#Cc1c(O)c2c(-c3ccc(-c4ccccc4O)cc3)csc2[nH]c1=O
> 1.02 µM
CC1(C)CNc2cc(NC(=O)c3cccnc3NCc3ccncc3)ccc21
> 2 µM
Nc1cccc2c1CN(C1CCC(=O)NC1=O)C2=O (stereo not drawn) [LENALIDOMIDE]
> 5 µM

* * *

Tested on: 769-P
assay name: cells
Type: functional, cell-based, Homo sapiens
particulars: Homo sapiens, 769-P
Description: SANGER: Inhibition of human 769-P cell growth in a cell viability assay.
Form field: IC50 (one value per entry).
metric name: IC50

N#Cc1c(O)c2c(-c3ccc(-c4ccccc4O)cc3)csc2[nH]c1=O
> 1.02 µM
Nc1cccc2c1CN(C1CCC(=O)NC1=O)C2=O (stereo unspecified) [LENALIDOMIDE]
> 5 µM
CC(C)CCN1c2nc(Nc3cc(F)c(O)c(F)c3)ncc2N(C)C(=O)C1C (stereo unspecified)
> 5 µM
CC1(C)CNc2cc(NC(=O)c3cccnc3NCc3ccncc3)ccc21
> 2 µM
C=C(c1ccc(C(=O)O)cc1)c1cc2c(cc1C)C(C)(C)CCC2(C)C
> 8 µM
CS(=O)(=O)c1ccc(C(=O)Nc2ccc(Cl)c(-c3ccccn3)c2)c(Cl)c1
> 10 µM

* * *

Form field: pIC50 (one value per entry).
Tested on: BEN
assay name: cells
Assay type: functional, cell-based, Homo sapiens
particulars: Homo sapiens, BEN
Description: SANGER: Inhibition of human BEN cell growth in a cell viability assay.
pIC50: −log10 of the molar value.
metric name: pIC50

CCN(CC)CCCCNc1ncc2cc(-c3cc(OC)cc(OC)c3)c(NC(=O)NC(C)(C)C)nc2n1 [PD-173074]
< 5.70
CC(C)CCN1c2nc(Nc3cc(F)c(O)c(F)c3)ncc2N(C)C(=O)C1C (stereo not drawn)
< 5.30
C=C(c1ccc(C(=O)O)cc1)c1cc2c(cc1C)C(C)(C)CCC2(C)C [BEXAROTENE]
< 5.10

* * *

Form field: pIC50 (one value per entry).
System: ES1
assay name: cells
Assay type: functional, cell-based, Homo sapiens
particulars: Homo sapiens, ES1
Description: SANGER: Inhibition of human ES1 cell growth in a cell viability assay.
pIC50: −log10 of the molar value.
metric name: pIC50

COc1cc(-c2nn([C@H]3CC[C@H](N4CCN(C(C)=O)CC4)CC3)c3ncnc(N)c23)ccc1NC(=O)c1cc2ccccc2n1C
< 5.29
CCN(CC)CCCCNc1ncc2cc(-c3cc(OC)cc(OC)c3)c(NC(=O)NC(C)(C)C)nc2n1 [PD-173074]
< 5.70
Cc1cn(-c2cc(NC(=O)c3ccc(C)c(Nc4nccc(-c5cccnc5)n4)c3)cc(C(F)(F)F)c2)cn1 [NILOTINIB]
< 5.70

* * *

Test system: MZ7-mel
assay name: cells
Type: functional, cell-based, Homo sapiens
particulars: Homo sapiens, MZ7-mel
Description: SANGER: Inhibition of human MZ7-mel cell growth in a cell viability assay.
metric name: IC50

OCCCNc1cc(-c2ccnc(Nc3cccc(Cl)c3)n2)ccn1
> 0.256 µM
COc1cc2c(Nc3ccc(NC(=O)c4ccccc4)cc3)ncnc2cc1OCCCN1CCOCC1
> 4 µM
N#Cc1c(O)c2c(-c3ccc(-c4ccccc4O)cc3)csc2[nH]c1=O
> 1.02 µM

* * *

Tested on: NCI-H1304;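 note: growth inhibition of the cancer cell line, measured in a cell viability assay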
assay name: cells
Type: functional, cell-based, Homo sapiens
particulars: Homo sapiens, NCI-H1304
Description: SANGER: Inhibition of human NCI-H1304 cell growth in a cell viability assay.
Where a name gives a salt, the structure may show the parent alone.
metric name: IC50

CC1(C)CNc2cc(NC(=O)c3cccnc3NCc3ccncc3)ccc21
> 2000 nM
COC1=CC(c2cc3ccccc3[nH]2)=N/C1=C\c1[nH]c(C)cc1C [OBATOCLAX MESYLATE]
1640 nM
COc1cc2c(Nc3ccc(NC(=O)c4ccccc4)cc3)ncnc2cc1OCCCN1CCOCC1
> 4000 nM

* * *

Tested on: PC-3;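 note: cell viability assay measuring growth inhibition of PC-3 cells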
assay name: cells
Type: functional, cell-based, Homo sapiens
particulars: Homo sapiens, PC-3
Description: SANGER: Inhibition of human PC-3 cell growth in a cell viability assay.
Form field: IC50 (one value per entry).
metric name: IC50

COc1cccc2c1C(=O)c1c(O)c3c(c(O)c1C2=O)C[C@@](O)(C(=O)CO)C[C@@H]3O[C@H]1C[C@H](N)[C@H](O)[C@H](C)O1
957 nM
Cc1cn(-c2cc(NC(=O)c3ccc(C)c(Nc4nccc(-c5cccnc5)n4)c3)cc(C(F)(F)F)c2)cn1
> 2000 nM
Cn1cnc2c(F)c(Nc3ccc(Br)cc3Cl)c(C(=O)NOCCO)cc21
> 4000 nM
N#Cc1c(O)c2c(-c3ccc(-c4ccccc4O)cc3)csc2[nH]c1=O
> 1020 nM
